Please go through the items and note down their IC50.
- System: L1210
- METHOD_NOTES: Evaluated for cytotoxicity against L1210 cells
- Format: functional
- CONDITION_DETAILS: Mus musculus, read-out: ID50 (the source's name)
Provide the reading as a plain figure in nM.

Give reported IC50 for NC(=O)c1c[se]c([C@@H]2O[C@H](CO)[C@@H](O)[C@H]2O)n1 (L1210) 400

Give reported IC50 for NC(=O)c1csc([C@@H]2O[C@H](CO)[C@@H](O)[C@H]2O)n1 (L1210) 1950
